I'd be grateful if you could share measured Emax for these entries.
# subject-of-test: human β1-adrenoceptor (Homo sapiens, UniProt P08588)
# Construct: Both ends of a domain including full length of human β1-adrenoceptor were amplified; expressed in transfected cells; host or cells: CHO cells (transient transfection of pCI-neo plasmid, Lipofectamine 2000)
# Sequence (P08588 whole entry): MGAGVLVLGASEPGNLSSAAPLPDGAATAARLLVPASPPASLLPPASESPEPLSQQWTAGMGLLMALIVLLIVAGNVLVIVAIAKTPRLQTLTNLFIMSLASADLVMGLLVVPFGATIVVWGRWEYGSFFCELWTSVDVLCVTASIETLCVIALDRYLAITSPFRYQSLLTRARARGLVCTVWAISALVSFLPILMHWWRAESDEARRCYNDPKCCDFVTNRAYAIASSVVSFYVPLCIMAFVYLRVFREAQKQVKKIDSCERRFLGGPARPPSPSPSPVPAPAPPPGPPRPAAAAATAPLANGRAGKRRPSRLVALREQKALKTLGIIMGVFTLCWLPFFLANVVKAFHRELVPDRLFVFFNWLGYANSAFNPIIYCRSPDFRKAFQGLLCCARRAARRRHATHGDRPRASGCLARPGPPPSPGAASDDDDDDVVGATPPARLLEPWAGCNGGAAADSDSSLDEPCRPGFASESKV
# assay-details: Measurement of agonistic activities on human β1-adrenoceptor (cAMP accumulation in transfected CHO cells)
# Assay type: cell-based
# assay-setup: CHO cells expressing human β1-adrenoceptor; maximum reaction relative to isoproterenol (100%); read-out: β1 receptor I.A. (intrinsic activity)
Just the number in %, nothing appended.

Item under review: `CS(=O)(=O)Nc1cc([C@@H](O)CNCCOc2ccc(-c3ccc(C(=O)O)c(C(=O)O)c3)cc2)ccc1O` . Reported Emax?
86

Try this molecule too: `Cc1cc(-c2ccc(OCC(=O)O)cc2)cc(C)c1OCCN[C@@H](C)[C@H](O)c1ccc(O)c(NS(C)(=O)=O)c1`
49

Now consider O=C(O)c1cccc(-c2cccc(OCCNC[C@H](O)c3cccc(Cl)c3)c2)c1 [comparison, reference compound] .
60

Consider next the molecule `CCOc1cc(-c2ccc(OCCNC[C@H](O)c3ccc(O)c(NS(C)(=O)=O)c3)cc2)ccc1C(=O)O` in the same way.
85
